FYI, the data here is from BigSolDB 2.1.

- conditionParameters: in methanol, 298.15 K

molecule: CC1=C(O)C(=O)C(C)O1 (stereo unspecified)
solubility (mole fraction): 0.257

* * *

- conditionParameters: in water, 283.15 K
metricName: solubility (mole fraction)

compound: CC1=C(O)C(=O)C(C)O1 (stereo unspecified)
metricName: solubility (mole fraction)
valueReported: 0.0091

* * *

- conditionParameters: in n-butanol, 308.15 K

compound: CC1=C(O)C(=O)C(C)O1 (stereo unspecified)
solubility (mole fraction): 0.307

* * *

- conditionParameters: in n-hexane, 303.15 K
metricName: solubility (mole fraction)

compound: CC1=C(O)C(=O)C(C)O1 (stereo unspecified)
valueReported: 0.0163

* * *

- conditionParameters: in n-butanol, 303.15 K
metricName: solubility (mole fraction)

compound: CC1=C(O)C(=O)C(C)O1 (stereo unspecified)
valueReported: 0.247

* * *

- conditionParameters: in ethanol, 313.15 K

compound: CC1=C(O)C(=O)C(C)O1 (stereo unspecified)
solubility (mole fraction): 0.427

* * *

- conditionParameters: in n-hexane, 288.15 K
metricName: solubility (mole fraction)

compound: CC1=C(O)C(=O)C(C)O1 (stereo unspecified)
valueReported: 0.0073

* * *

- conditionParameters: in n-propanol, 303.15 K

compound: CC1=C(O)C(=O)C(C)O1 (stereo unspecified)
solubility (mole fraction): 0.268

* * *

- conditionParameters: in n-butanol, 293.15 K
metricName: solubility (mole fraction)

compound: CC1=C(O)C(=O)C(C)O1 (stereo unspecified)
valueReported: 0.156

* * *

- conditionParameters: in n-hexane, 308.15 K
metricName: solubility (mole fraction)

compound: CC1=C(O)C(=O)C(C)O1 (stereo unspecified)
valueReported: 0.0211

* * *

- conditionParameters: in n-butanol, 313.15 K
metricName: solubility (mole fraction)

compound: CC1=C(O)C(=O)C(C)O1 (stereo unspecified)
valueReported: 0.382

* * *

- conditionParameters: in n-propanol, 313.15 K
metricName: solubility (mole fraction)

molecule: CC1=C(O)C(=O)C(C)O1 (stereo unspecified)
metricName: solubility (mole fraction)
valueReported: 0.408

* * *

- conditionParameters: in water, 288.15 K

compound: CC1=C(O)C(=O)C(C)O1 (stereo unspecified)
solubility (mole fraction): 0.015

* * *

- conditionParameters: in n-hexane, 283.15 K

molecule: CC1=C(O)C(=O)C(C)O1 (stereo unspecified)
solubility (mole fraction): 0.0054

* * *

- conditionParameters: in water, 303.15 K
metricName: solubility (mole fraction)

molecule: CC1=C(O)C(=O)C(C)O1 (stereo unspecified)
metricName: solubility (mole fraction)
valueReported: 0.0665

* * *

- conditionParameters: in methanol, 283.15 K
metricName: solubility (mole fraction)

compound: CC1=C(O)C(=O)C(C)O1 (stereo unspecified)
metricName: solubility (mole fraction)
valueReported: 0.143

* * *

- conditionParameters: in n-propanol, 308.15 K

compound: CC1=C(O)C(=O)C(C)O1 (stereo unspecified)
solubility (mole fraction): 0.332

* * *

- conditionParameters: in methanol, 293.15 K
metricName: solubility (mole fraction)

compound: CC1=C(O)C(=O)C(C)O1 (stereo unspecified)
valueReported: 0.21

* * *

- conditionParameters: in n-butanol, 298.15 K

compound: CC1=C(O)C(=O)C(C)O1 (stereo unspecified)
solubility (mole fraction): 0.196

* * *

- conditionParameters: in n-propanol, 288.15 K

molecule: CC1=C(O)C(=O)C(C)O1 (stereo unspecified)
solubility (mole fraction): 0.138

* * *

- conditionParameters: in n-hexane, 313.15 K

molecule: CC1=C(O)C(=O)C(C)O1 (stereo unspecified)
solubility (mole fraction): 0.0271

* * *

- conditionParameters: in ethanol, 283.15 K
metricName: solubility (mole fraction)

compound: CC1=C(O)C(=O)C(C)O1 (stereo unspecified)
valueReported: 0.12

* * *

- conditionParameters: in methanol, 303.15 K
metricName: solubility (mole fraction)

molecule: CC1=C(O)C(=O)C(C)O1 (stereo unspecified)
metricName: solubility (mole fraction)
valueReported: 0.31

* * *

- conditionParameters: in ethanol, 288.15 K

compound: CC1=C(O)C(=O)C(C)O1 (stereo unspecified)
solubility (mole fraction): 0.151
